# TEST DESCRIPTION: qHTS Assay for Inhibitors of Hepatitis C Virus (HCV)
# PARTICULARS: Huh7.5.1 HCVcc-Cre infection, luciferase reporter, 44 h; series mostly up to 41.8 µM
The whole screen tested about 340,000 compounds, of which about 12,000 (3.5%) were called active. Roughly 18% stayed inconclusive and do not appear here. Calls follow the shape of the dose curve; as a rule, active = well fitted inhibition curve with a large enough effect; inconclusive = small, poorly fitted or top-dose-only effect, or another doubt; inactive = no such curve, though single readings can be large or run the other way. Shown is part of a subset that was picked to be rich in actives.
Can you answer with just one of these options? t = active, f = inactive

- CC(C)CC1NC(=O)c2cc(Cl)ccc2-n2c1nc1ccccc1c2=O (stereo not given): f
- Cc1ccc(NC(=O)Cn2cnc3c(OCc4ccccc4)ncnc32)cc1C: f
- COc1ccc(-n2nc(C(=O)NCC(=O)N3CCC(C(N)=O)CC3)c3ccccc3c2=O)cc1OC: f
- COc1ccc(-n2nc(C(=O)NCC(=O)N3CCCCCC3)c3ccccc3c2=O)cc1Cl: t

We now examine a further compound.
Query: GET /call?item= "COC(=O)c1c(NC(=O)CCCC(=O)O)sc2c1CCCCC2" returns the recorded outcome of this test.
Response: f

* * *

# TEST DESCRIPTION: qHTS Assay for Inhibitors of Hepatitis C Virus (HCV)
# PARTICULARS: Huh7.5.1 HCVcc-Cre infection, luciferase reporter, 44 h; series mostly up to 41.8 µM
In all, about 340,000 compounds went through this assay and about 12,000 (3.5%) were called active. Not shown: some 18% with an inconclusive outcome. The call rests on the fitted dose curve; in most records, active means well fitted inhibition curve with a large enough effect; inconclusive means small, poorly fitted or top-dose-only effect, or another doubt; inactive means no such curve, though single readings can be large or run the other way. Shown is part of a subset that was picked to be rich in actives.
Outcome (select one): Yes (active), No (inactive)

Observe how each entry below is paired with its result.
- CC1(C)CC(N2CCN(C(c3ccccc3)c3ccccc3)CC2)=CC(=[N+]2CCCCC2)C1: Yes
- CC(C)NC(=S)N1CCN(C(c2ccccc2)c2ccccc2)CC1: No
- CC[C@]12c3[nH]c4ccc(OC)cc4c3CCN1C(=O)C(CC(=O)NCc1ccco1)C[C@@H]2C(=O)N1CCN(C(=O)C2CC2)CC1 (some centres undefined): No
- COc1ccc(/C=C2/CCCc3ccccc3C2=O)cc1: No
- O=C1c2ccccc2[C@@H]2C[C@@H](O)[C@H](Nc3ccccc3Cl)CCN12: No

Query: I'd appreciate the recorded outcome for "O=C(O)CN1CCN(C(c2ccccc2)c2ccccc2)CC1" from this test.
Response: No

Query: I would be grateful if you could indicate the recorded call for COc1ccc(CCOC2OC(CO)C(OC(=O)/C=C/c3ccc(O)c(OC)c3)C(O[C@H]3O[C@@H](C)[C@H](O)[C@@H](O)[C@H]3O)C2O)cc1O (some centres undefined) .
Response: No

Query: Returns: the outcome recorded for "COc1ccc(C(=O)COC(=O)c2c(C)noc2C)cc1Cl" in this assay.
Response: No

Query: How was "CCN1C(=O)/C(=C\N2CCN(c3cccc(Cl)c3)CC2)SC1=S" classified in this test?
Response: No

* * *

# TEST DESCRIPTION: qHTS Assay for Inhibitors of Hepatitis C Virus (HCV)
# PARTICULARS: Huh7.5.1 HCVcc-Cre infection, luciferase reporter, 44 h; series mostly up to 41.8 µM
Among all 340,000 compounds or so, about 12,000 (3.5%) were called active. Not shown: some 18% with an inconclusive outcome. The call rests on the fitted dose curve; in most records, active means well fitted inhibition curve with a large enough effect; inconclusive means small, poorly fitted or top-dose-only effect, or another doubt; inactive means no such curve, though single readings can be large or run the other way. The list comes from a sample in which actives are over-represented; it also holds close analogues and randomly drawn compounds.
Hi! Could you answer with just one of these? active, inactive

Below, 4 compounds whose answers are already recorded.
* COc1cccc(N(CC(=O)Nc2cccc(N(C)S(C)(=O)=O)c2)S(C)(=O)=O)c1 | inactive
* CCOC(=O)CSc1nnc(-c2ccco2)n1C | inactive
* CN(c1cccc(NC(=O)c2ccc(CN3CCc4ccccc4C3)cc2)c1)S(C)(=O)=O | active
* CN(c1cccc(NC(=O)Nc2ccc(Cl)cc2)c1)S(C)(=O)=O | active

We next turn to a different compound, shown below.
Query: Name the outcome recorded for "CCOC(=O)CSc1nc2c(c(=O)n(C)c(=O)n2C)n1Cc1ccccc1F" in the assay.
Response: inactive

Origin of the recorded values: PubChem BioAssay AID651820
